Provenance of the data: patent US20250129088A1

tested on: MV-4-11 cells; test: MV-4-11 cell proliferation inhibition, CCK-8; assay type: cell-based; conditions: Homo sapiens, MV4-11, 96 h, MV-4-11, 4 days, Table 7, positive control Palbociclib
pIC50: −log10 of the molar value.
MEASURE NAME: pIC50

Example entries and their recorded answers appear below.
CC(=O)c1c(C)c2cnc(Nc3ccc(N4CCN(CCOCCC(=O)N5CCC6(CCc7cc8c(cc7O6)C(=O)N(C6CCC(=O)NC6=O)C8=O)CC5)CC4)cn3)nc2n(C2CCCC2)c1=O (centres unmarked)
5.30
CC(=O)c1c(C)c2cnc(Nc3ccc(N4CCN(CCOCCC(=O)N5CCC6(CC5)COc5cc7c(cc56)C(=O)N(C5CCC(=O)NC5=O)C7=O)CC4)cn3)nc2n(C2CCCC2)c1=O (centres unmarked)
5.67

1 = CC(=O)c1c(C)c2cnc(Nc3ccc(N4CCN(CCOCCC(=O)N5CC6(CCc7cc8c(cc7O6)C(=O)N(C6CCC(=O)NC6=O)C8=O)C5)CC4)cn3)nc2n(C2CCCC2)c1=O (centres unmarked)
2 = CC(=O)c1c(C)c2cnc(Nc3ccc(N4CCN(CCOCCC(=O)N5CC6(CCc7cc8c(cc7O6)CN(C6CCC(=O)NC6=O)C8=O)C5)CC4)cn3)nc2n(C2CCCC2)c1=O (centres unmarked)
-- ask Endpoint returns the identifier whose pIC50 is numerically larger, either 1 or 2 . Kindly state the label of the option you pick.
-- reply 2

---

tested on: K562 cells; assay: K562 cell proliferation inhibition, CCK-8; type: cell-based; conditions: Homo sapiens, 96 h, K562, 4 days, Table 11, positive control Alisertib
pIC50: −log10 of the molar value.
MEASURE NAME: pIC50

COc1cc(Nc2ncc3c(n2)-c2ccc(Cl)cc2C(c2c(F)cccc2OC)=NC3)ccc1C(=O)N1CC2(CCc3cc4c(cc3O2)C(=O)N(C2CCC(=O)NC2=O)C4)C1 (centres unmarked) [PROTAC 4]
6.66

P = COc1cc(Nc2ncc3c(n2)-c2ccc(Cl)cc2C(c2c(F)cccc2OC)=NC3)ccc1C(=O)N1CC2(CCc3cc4c(cc3O2)CN(C2CCC(=O)NC2=O)C4=O)C1 (centres unmarked) [PROTAC 3]
Q = COc1cc(Nc2ncc3c(n2)-c2ccc(Cl)cc2C(c2c(F)cccc2OC)=NC3)ccc1C(=O)O [Alisertib, reference compound]
R = COc1cc(Nc2ncc3c(n2)-c2ccc(Cl)cc2C(c2c(F)cccc2OC)=NC3)ccc1C(=O)NCCOCCC(=O)N1CCC2(CC1)COc1cc3c(cc12)C(=O)N(C1CCC(=O)NC1=O)C3=O (centres unmarked) [PROTAC 7]
S = COc1cc(Nc2ncc3c(n2)-c2ccc(Cl)cc2C(c2c(F)cccc2OC)=NC3)ccc1C(=O)N1CCC2(CCc3cc4c(cc3O2)CN(C2CCC(=O)NC2=O)C4=O)CC1 (centres unmarked) [PROTAC 1]
-- ask Rank entries according to their pIC50, from the largest number down. # respond with the labels, arranged in the requested order
-- reply S, P, R, Q

---

Parameter pIC50, tested on E3 ubiquitin ligase CRBN (Homo sapiens (Human), UniProt Q96SW2), listed per item.
Worth noting: pIC50 values are minus log10 of concentrations stated in mol/L.

Some compounds with recorded pIC50:
O=C1CCC(N2C(=O)c3cc4c(cc3C2=O)C2(CCNCC2)CO4)C(=O)N1 (stereo not drawn)
4.82
O=C1CCC(N2C(=O)c3ccc4c(c3C2=O)C2(CCNCC2)CO4)C(=O)N1 (stereo not drawn)
4.44

// moving on: another record for pIC50
-- ask Provide pIC50, tested on E3 ubiquitin ligase CRBN (Homo sapiens (Human), UniProt Q96SW2), for O=C1CCC(N2Cc3cc4c(cc3C2=O)CCC2(CCNCC2)O4)C(=O)N1 (stereo not drawn) .
-- reply 5.52

---

tested on: MOLM-13 cells; experiment: MOLM-13 cell proliferation inhibition, CCK-8; assay type: cell-based; settings: Homo sapiens, 96 h, MOLM-13, 4 days, Table 9
MEASURE NAME: IC50 (µM)

Cc1nc(Nc2ncc(C(=O)Nc3c(C)cccc3Cl)s2)cc(N2CCN(CCOCCC(=O)N3CCC4(CCc5cc6c(cc5O4)C(=O)N(C4CCC(=O)NC4=O)C6=O)CC3)CC2)n1 (stereo not drawn)
1.11

I = Cc1nc(Nc2ncc(C(=O)Nc3c(C)cccc3Cl)s2)cc(N2CCN(CCOCCC(=O)N3CCC4(CC3)COc3cc5c(cc34)C(=O)N(C3CCC(=O)NC3=O)C5=O)CC2)n1 (stereo not drawn)
II = Cc1nc(Nc2ncc(C(=O)Nc3c(C)cccc3Cl)s2)cc(N2CCN(CCOCCC(=O)N3CCC4(CC3)COc3cc5c(cc3C4)C(=O)N(C3CCC(=O)NC3=O)C5=O)CC2)n1 (stereo not drawn)
-- ask Hey, between I and II which has a smaller measured IC50? Pick one and reply with its label.
-- reply II
(II: 1.05 µM, I: 4.77 µM)

---

system: MV-4-11 cells; test: MV-4-11 cell proliferation inhibition, CCK-8; type: cell-based; settings: Homo sapiens, MV4-11, 96 h, MV-4-11, 4 days, Table 7, positive control Palbociclib
pIC50: −log10 of the molar value.
MEASURE NAME: pIC50

CC(=O)c1c(C)c2cnc(Nc3ccc(N4CCNCC4)cn3)nc2n(C2CCCC2)c1=O [Palbociclib, reference compound]
5.68

I = CC(=O)c1c(C)c2cnc(Nc3ccc(N4CCN(CCOCCC(=O)N5CCC6(CCc7cc8c(cc7O6)C(=O)N(C6CCC(=O)NC6=O)C8)CC5)CC4)cn3)nc2n(C2CCCC2)c1=O (stereo not drawn) [PROTAC 42]
II = CC(=O)c1c(C)c2cnc(Nc3ccc(N4CCN(CCOCCC(=O)N5CCC6(CCc7cc8c(cc7O6)CN(C6CCC(=O)NC6=O)C8=O)CC5)CC4)cn3)nc2n(C2CCCC2)c1=O (stereo not drawn) [PROTAC 43]
-- ask Could you please tell me which of these two has the higher pIC50: I or II ? Choose, then provide that item's label.
-- reply I

---

tested on: NCI-H358 cells; assay: NCI-H358 cell proliferation inhibition, CCK-8; assay type: cell-based; conditions: Homo sapiens, 96 h, NCI-H358, 4 days
MEASURE NAME: IC50 (µM)

COc1cc2ncnc(Nc3ccc(F)c(Cl)c3)c2cc1OCCCN1CCN(CCOCCC(=O)N2CC3(CCc4cc5c(cc4O3)C(=O)N(C3CCC(=O)NC3=O)C5=O)C2)CC1 (stereo not drawn)
71.2

A = COc1cc2ncnc(Nc3ccc(F)c(Cl)c3)c2cc1OCCCN1CCN(CCOCCC(=O)N2CCC3(CC2)COc2cc4c(cc2C3)C(=O)N(C2CCC(=O)NC2=O)C4=O)CC1 (stereo not drawn)
B = COc1cc2ncnc(Nc3ccc(F)c(Cl)c3)c2cc1OCCCN1CCN(CCOCCC(=O)N2CCC3(CC2)COc2cc4c(cc23)C(=O)N(C2CCC(=O)NC2=O)C4=O)CC1 (stereo not drawn)
-- ask Choose between A and B : whose measured IC50 value is numerically larger? Answer = label.
-- reply A

---

Tested on: NCI-H358 cells
Assay: NCI-H358 cell proliferation inhibition, CCK-8
Assay type: cell-based
Conditions: Homo sapiens, 96 h, NCI-H358, 4 days
Excerpt: The complete medium required for NCI-H358 cells is RPMI1640 (ATCC, Product number: 30-2001) basal medium containing 10% fetal bovine serum. […] Cell viability was detected using a CCK-8 kit (Beyotime, Product number: C0040) according to the manufacturer's instructions. […]
MEASURE NAME: IC50 (µM)

COc1cc2ncnc(Nc3ccc(F)c(Cl)c3)c2cc1OCCCN1CCN(CCOCCC(=O)N2CCC3(CCc4cc5c(cc4O3)C(=O)N(C3CCC(=O)NC3=O)C5)CC2)CC1 (stereo not drawn) [PROTAC 17]
16.8

P = COc1cc2ncnc(Nc3ccc(F)c(Cl)c3)c2cc1OCCCN1CCN(CCOCCC(=O)N2CCC3(CC2)COc2cc4c(cc2O3)CN(C2CCC(=O)NC2=O)C4=O)CC1 (stereo not drawn) [PROTAC 18]
Q = COc1cc2ncnc(Nc3ccc(F)c(Cl)c3)c2cc1OCCCN1CCN(CCOCCC(=O)N2CCC3(CCc4cc5c(cc4O3)C(=O)N(C3CCC(=O)NC3=O)C5=O)CC2)CC1 (stereo not drawn) [PROTAC 21]
-- ask Which record shows the lower IC50: the first, P , or the second, Q ? Reply with the label of the item you choose.
-- reply Q
(Q: 23.2 µM, P: 42.6 µM)
